Each recorded value in this set is attributed to patent US20230095569A1.

Listing of recorded ADCC EC50 by entry.
- Target of assay: human Claudin18.2 (CLDN18.2) (human, UniProt P56856 1-261)
- Assay text: cell-based or functional assay
Hi! Could you send only the number? It should be in nM, unit omitted.

# count of solved cases: 4
Binder	ADCC EC50 / nM
chAb31 (antibody, V domains shown) VH: QIQLAQSGPELKKPGETVKISCKASGYSFTNYGMNWVKQAPGKGLKWMGWINTYSGETKYADDFKGRFDFSLETSARTAYLQIKNLKIEDTATYFCARRDAMDYWGQGTSVTVSS VL: DIVMTQAAPSVPVTPGESVSISCRSSKSLLNSNGNTYLYWFLQRPGQSPQLLIYRMSNLASGVPDRFSGSGSGTAFTLRISRVEAEDVGVYYCMQHLEFPFTFGSGTKLEIK	8.16
chAb06 (antibody, V domains shown) VH: EVQLVASGGGLVKPGGSLKLSCAASGITFRSYAMSWVRQTPEKRLEWVATITDGGSYIFYPDNVKGRFTISGDHAKNNLYLQMSHLKSEDTALYFCVRLYYGNSFAYWGQGTLVTVSA VL: DIVMTQSPSSLTVTAGEKVTLNCKSSQSLFNSGNQKNYLTWYQQKPGQPPKLLIYWASTRESGVPDRFTGSGSGTDFTLTFSSVQAEDLAVYYCQNAYIYPFTFGSGTKLEIK	3.01
chAb29 (antibody, V domains shown) VH: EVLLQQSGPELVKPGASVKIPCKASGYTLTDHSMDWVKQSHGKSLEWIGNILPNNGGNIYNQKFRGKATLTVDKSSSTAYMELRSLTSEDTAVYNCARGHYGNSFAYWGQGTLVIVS VL: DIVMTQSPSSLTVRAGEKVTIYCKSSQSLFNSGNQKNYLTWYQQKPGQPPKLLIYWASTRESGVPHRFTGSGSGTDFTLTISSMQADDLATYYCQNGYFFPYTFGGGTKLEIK	5.27
chAb05 (antibody, V domains shown) VH: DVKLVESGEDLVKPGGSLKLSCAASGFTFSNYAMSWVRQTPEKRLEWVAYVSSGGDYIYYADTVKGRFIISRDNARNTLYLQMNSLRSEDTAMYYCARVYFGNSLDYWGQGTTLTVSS VL: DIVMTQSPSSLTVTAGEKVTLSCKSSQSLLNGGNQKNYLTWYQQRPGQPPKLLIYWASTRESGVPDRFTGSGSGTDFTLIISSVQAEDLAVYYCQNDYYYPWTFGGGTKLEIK	5.92

Kindly review the next binder as well.
Give ADCC EC50 for the following binder: IMAB362 (Zolbetuximab) (antibody, V domains shown) VH: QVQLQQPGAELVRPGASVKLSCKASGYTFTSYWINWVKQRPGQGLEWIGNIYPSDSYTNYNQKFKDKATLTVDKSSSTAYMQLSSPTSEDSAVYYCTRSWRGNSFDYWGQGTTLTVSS VL: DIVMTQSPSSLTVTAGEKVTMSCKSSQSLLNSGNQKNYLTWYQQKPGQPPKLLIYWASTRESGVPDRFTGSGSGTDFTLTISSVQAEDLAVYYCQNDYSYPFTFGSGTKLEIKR 36.1
